Test system: S. Typhi PhoP-promoter GFP reporter, fluorescence, 4 h
TEST_DETAILS: PhoP regulon inhibitor project modified counter assay, GFP fluorescence readout, dose response (AID 1985)
MEASURED_QUANTITY: pIC50
Convention used: pIC50 is expressed as -log10 of the molar concentration.

                                 molecule  result_value
0   O=C(CCN1CCN(c2ccccc2)CC1)c1ccc(Br)cc1          4.01
1  COc1ccc(C(=O)NNC(=S)NC(=O)c2ccccc2)cc1          4.08

Let us examine a further case.
INPUT: Fill in reported pIC50 for this entry: Cc1ccc(OCC(O)Cn2c(=N)n(CCN3CCCCC3)c3ccccc32)cc1 (stereo not drawn)
OUTPUT: 4.17

* * *

Tested on: S. Typhi PhoP-promoter GFP reporter, fluorescence, 4 h
TEST_DETAILS: PhoP regulon inhibitor project modified counter assay, GFP fluorescence readout, dose response (AID 1985)
MEASURED_QUANTITY: pIC50
Convention used: pIC50 is expressed as -log10 of the molar concentration.

Please review the following examples before continuing.
In [3]: df
Out[3]:
                                   compound  result_value
0    CN(C)CC/C=C1/c2cc(F)ccc2Sc2ccc(Cl)cc21          4.07
1  COc1cccc(C=NCC(C)N=Cc2cccc(OC)c2O)c1O (centres undefined)          4.13
2  O=C(Nc1nnc(-c2cccs2)o1)c1cccc(Oc2ccccc2)c1          4.40

Let us examine a further case.
INPUT: Fill in reported pIC50 for this entry: CN1CCN(C2Cc3cc(F)ccc3Sc3ccc(Cl)cc32)CC1 (centres undefined)
OUTPUT: 4.13

* * *

# IC50 per entry
Test system: S. Typhi PhoP-promoter GFP reporter, fluorescence, 4 h
TEST_DETAILS: PhoP regulon inhibitor project modified counter assay, GFP fluorescence readout, dose response (AID 1985)

Please review the following examples before continuing.
COMPOUND	IC50
Cc1ccc2c(c1)C1CN(C)CCC1N2Sc1ccccc1[N+](=O)[O-] (centres undefined)	135 µM
O=C(N/N=C/c1ccc([N+](=O)[O-])s1)c1cccnc1	22.8 µM
CCC(/C=C1\Sc2ccc(OC)cc2N1CCO)=C\c1sc2ccc(OC)cc2[n+]1CCO	95 µM
CN1CCC(OC(=O)c2ccc(Br)cc2)CC1	58.3 µM
OC(CNCCc1ccc(C(F)(F)F)cc1)COC(c1ccccc1)c1ccccc1 (centres undefined)	82.9 µM
CCCCCCCCCCn1c2c(c(=N)c3c1CCC3)CCC2	144 µM
CCCOc1ccc(C(=O)NNC(=S)NC(C)=O)cc1	52.3 µM
O=C(C[n+]1cc(-c2ccc(Cl)cc2)n2c1CCC2)Nc1nc(-c2ccccc2)cs1	36.7 µM

INPUT: Fill in reported IC50 for this entry: C#CCOCCOCCOCCNc1nc(N2CCN(C(=O)[C@H](Cc3cc4ccccc4[nH]3)n3cc([C@@H](N)CC(C)C)nn3)CC2)nc(N2CCN(C(=O)[C@H](Cc3cc4ccccc4[nH]3)n3cc([C@@H](N)CC(C)C)nn3)CC2)n1
OUTPUT: 67.5 µM

INPUT: Fill in reported IC50 for this entry: Nc1nnc(-c2cccc(Cl)c2Cl)c(N)n1
OUTPUT: 33 µM

INPUT: Fill in reported IC50 for this entry: Cc1ccc(Nc2nc(N)c3ccccc3n2)cc1Cl
OUTPUT: 68.5 µM

INPUT: Fill in reported IC50 for this entry: [O-][n+]1cccc2c(Br)cc(Br)c(O)c21
OUTPUT: 21.9 µM

INPUT: Fill in reported IC50 for this entry: CC[C@H]1OC(=O)C[C@@H](O)[C@H](C)[C@@H](O[C@@H]2O[C@H](C)C[C@H](N(C)C)[C@H]2O)[C@@H](CC=O)C[C@@H](C)C(=O)C=C[C@]2(C)O[C@H]2[C@@H]1C
OUTPUT: 9.29 µM

INPUT: Fill in reported IC50 for this entry: Oc1ccc(N=Nc2ccc(Br)cc2)c(O)c1
OUTPUT: 87.8 µM

INPUT: Fill in reported IC50 for this entry: CCCCCC(=O)NNC(=S)NC(C)=O
OUTPUT: 22.9 µM

INPUT: Fill in reported IC50 for this entry: Cc1ccc(CNCCC2=CCCCC2)cc1
OUTPUT: 81.9 µM

INPUT: Fill in reported IC50 for this entry: CC1(CC(=O)N/N=C/c2cc([N+](=O)[O-])c(O)cc2O)OCCO1
OUTPUT: 38.4 µM

INPUT: Fill in reported IC50 for this entry: CC(=O)NC(c1cccs1)c1cc([N+](=O)[O-])c2cccnc2c1O (centres undefined)
OUTPUT: 31.3 µM

INPUT: Fill in reported IC50 for this entry: Cc1ccc(C(=O)NCCN2C3=NC[C@@H](Cc4ccccc4)N3C[C@H]2Cc2ccc(O)cc2)cc1Br
OUTPUT: 121 µM
